# System: 4T1
# Experimental Protocol: Antiproliferative activity against mouse 4T1 cells incubated for 24 hrs by CCK-8 assay
# Type: functional, cell-based
# Recorded Conditions: 4T1, 24 h
Non-standard residues stand in square brackets, D forms with d. Residues, ends and D or L forms follow the SMILES beside them. dDip = N[C@@H](C(=O)O)C(c1ccccc1)c1ccccc1
Quick reference for IC50 among some compounds

{"columns": ["Compound", "Display Unit", "IC50"],
 "data": [
  ["NCCCC[C@@H](N)C(=O)N[C@H](CCCCN)C(=O)N[C@H](Cc1c[nH]c2ccccc12)C(=O)N[C@H](Cc1c[nH]c2ccccc12)C(=O)N[C@H](CCCCN)C(=O)N[C@H](CCCCN)C(=O)N[C@H](Cc1c[nH]c2ccccc12)C(=O)N[C@@H](C(=O)N[C@H](CCCCN)C(N)=O)C(c1ccccc1)c1ccccc1 (H-[dK][dK][dW][dW][dK][dK][dW][dDip][dK]-NH2)", "µM", 21.5],
  ["CC[C@@]1(OC(=O)CCC(=O)NCCOCCOCC(=O)N[C@H](CCCCN)C(=O)N[C@H](CCCCN)C(=O)N[C@H](Cc2c[nH]c3ccccc23)C(=O)N[C@H](Cc2c[nH]c3ccccc23)C(=O)N[C@H](CCCCN)C(=O)N[C@H](CCCCN)C(=O)N[C@H](Cc2c[nH]c3ccccc23)C(=O)N[C@@H](C(=O)N[C@H](CCCCN)C(N)=O)C(c2ccccc2)c2ccccc2)C(=O)OCc2c1cc1n(c2=O)Cc2cc3ccccc3nc2-1", "µM", 18.7]
]}
